System: XF498
Experiment: NCI tumour cell line growth inhibition, 48 h
The source made the active and inactive calls. Rule as the data show it: active = GI50 up to about 1.1 µM and inactive = higher.
Valid outcomes are listed here; reply with one: active, inactive

Worked set:
compound=CC(=O)Oc1cc(OC(C)=O)c2c(=O)c3ccccc3[nH]c2c1 labelclass=inactive
compound="COc1cc([C@@H]2c3cc4c(cc3[C@@H](NCc3ccc(C#N)cc3)C3COC(=O)[C@@H]32)OCO4)cc(OC)c1O (some centres undefined)" labelclass=active
compound="C[C@]12CCC[C@H](Cl)C1(O)C[C@H](C(=O)O)CC2 (some centres undefined)" labelclass=inactive
compound=CCc1cc(Cc2cc(CC)c(NC(=O)C(=O)Cc3ccccn3)c(CC)c2Cl)c(Cl)c(CC)c1NC(=O)C(=O)Cc1ccccn1 labelclass=inactive
compound=Cn1c(=O)nc2n(-c3cc(C(F)(F)F)cc(C(F)(F)F)c3)c3ccccc3nc-2c1=O labelclass=inactive
compound="COc1nc(NC2OCC(O)C(O)C2O)c(NC2OCC(O)C(O)C2O)c(=O)n1C (centres undefined)" labelclass=inactive

What call does the record list for "O=S(=O)(O)c1cc(/N=N/c2cc(S(=O)(=O)O)c3cccnc3c2O)ccc1/C=C/c1ccc(/N=N/c2cc(S(=O)(=O)O)c3cccnc3c2O)cc1S(=O)(=O)O" ?
inactive

What call does the record list for CCOC(=O)C1C(=O)c2ccccc2CN1Cc1ccccc1 (centres undefined) ?
inactive

What call does the record list for "O=S(O)CCCCCSSc1ccccc1" ?
inactive

###

Tested on: PC-3
Test: NCI tumour cell line growth inhibition, 48 h
Activity calls are given as the source filed them. Rule as the data show it: active = GI50 up to about 1.1 µM and inactive = higher. Where a SMILES comes first, the peptide text is derived from it. The star is where a group is joined. Boc = CC(C)(C)OC(=O)*; OBn = c1ccc(CO*)cc1
Valid outcomes are listed here; reply with one: active, inactive

Worked set:
molecule=CC(C)OC(=O)c1ccc(CCc2cc(O)c(Br)cc2O)cc1 labelclass=inactive
molecule=COC(=O)c1nc2c(C)c(O)c(O)c([C@H](C)CCC=C(C)C)c2o1 labelclass=inactive
molecule="Cn1c(=O)c2c(nc3n(CC(O)CCl)c(=O)ccn23)n(C)c1=O (stereo not drawn)" labelclass=inactive
molecule=O=C1c2cccc3cc([N+](=O)[O-])cc(c23)C(=O)N1O labelclass=inactive
molecule="CC12CCC(=O)C=C1CCC1C2CCC2(C)C(C(=O)Cn3cnc4c(=S)nc[nH]c43)CCC12 (stereo not drawn)" labelclass=inactive

What call does the record list for CC(=O)NC(CS)C(=O)NC(CO)C(=O)NC(CO)C(=O)NC(Cc1c[nH]c2ccccc12)C(=O)N1CCCC1C(=O)NC(CO)C(=O)NC(Cc1c[nH]c2ccccc12)C(=O)NC(Cc1c[nH]cn1)C(=O)NC(CO)C(=O)NC(Cc1c[nH]c2ccccc12)C(=O)NCC(=O)NCC(=O)NC(CC(=O)O)C(=O)NC(CCC(N)=O)C(=O)NC(CCCCN)C(=O)NC(Cc1ccccc1)C(=O)NC(CCCNC(=N)N)C(=O)NC(CCCCN)C(N)=O (stereo not drawn) (Ac-CSSWPSWHSWGGDQKFRK-NH2; configuration not given here) ?
inactive

What call does the record list for "O=C(Nc1ccc2ncccc2c1)c1cc2c(cc1Cl)Sc1nccn1S2(=O)=O" ?
inactive

What call does the record list for "COC(=O)c1cc(O)c(O)c(O)c1-c1c(O)c(O)c(O)c(SC[C@H](NC(=O)OCc2ccccc2)C(=O)OCc2ccccc2)c1C(=O)OC" ?
inactive

What call does the record list for CC(NC(=O)C(Cc1ccccc1)NC(=O)C(Cc1ccccc1)NC(=O)OC(C)(C)C)C(=O)OCc1ccccc1 (stereo not drawn) (Boc-Phe-Phe-Ala-OBn; configuration not given here) ?
inactive
